Listing of recorded GI50 by entry.
Tested on: SF-268
Assay: NCI tumour cell line growth inhibition, 48 h
Calls of active or inactive are those of the source. Rule as the data show it: active = GI50 up to about 1.1 µM and inactive = higher.

Illustrative cases are given below, each with its answer.
Molecule: CC(C)C1CC(O)O[C@@H]([C@@H](C)[C@H]2CC(=O)[C@@H]3[C@@H]4[C@@H](O)[C@H](O)[C@H]5[C@@H](O)[C@H](O)CC[C@]5(C)[C@H]4CC[C@]23C)C1 (stereo partly specified)
Observable: GI50
Result: 39.9 µM (inactive)

Molecule: Cn1c(=O)oc2cc(C(=S)N3CCC(Cc4ccccc4)CC3)ccc21
Observable: GI50
Result: > 100 µM (inactive)

Molecule: COc1cc2c(c(O)c1OC)C(=O)C1CCC(=O)N1C2c1cccc2ccccc12 (stereo unspecified)
Observable: GI50
Result: 57.8 µM (inactive)

Molecule: CC(=O)O/C(C)=C\C(=O)O/N=C(\N)c1ccc(C)cc1
Observable: GI50
Result: 29.8 µM (inactive)

Could you share what GI50 was measured for O=C(/C=C/c1ccc([N+](=O)[O-])cc1)N1CCN(CCOC(c2ccc(F)cc2)c2ccc(F)cc2)CC1 , tested on SF-268?
> 100 µM (inactive)

Moving on to C1=C(c2ccccc2)C(OC2Oc3ccccc3C=C2c2ccccc2)Oc2ccccc21 (stereo unspecified)
> 100 µM (inactive)

Check CCOC(=O)N1CC2(C)C=CC1C(C(=O)OC)C2 (stereo unspecified) too.
> 100 µM (inactive)

Same question for CCOC(=O)c1cccc(/N=N/c2ncc(/C=C/C(=O)OC)[nH]2)c1 please.
26.8 µM (inactive)

And for CCCCNc1nc(O)c2[nH]cnc2n1 ?
> 100 µM (inactive)

For CC1OC(=O)N2CCC=CC12 (stereo unspecified) then?
> 100 µM (inactive)

// query: C[N+]1(C)C/C(=C\c2ccccc2)C(=O)/C(=C/c2ccccc2)C1
> 100 µM (inactive)

Now try CN(C)c1ccc(-c2nc(-c3cc4c(ccc5ccccc54)oc3=O)cs2)cc1 .
> 100 µM (inactive)

The reported numbers originate from ChEMBL document CHEMBL1201862.
